Origin of the recorded values: patent US11040035B2

# target.desc: AHR (Homo sapiens, UniProt P35869)
# Sequence (P35869 11-848): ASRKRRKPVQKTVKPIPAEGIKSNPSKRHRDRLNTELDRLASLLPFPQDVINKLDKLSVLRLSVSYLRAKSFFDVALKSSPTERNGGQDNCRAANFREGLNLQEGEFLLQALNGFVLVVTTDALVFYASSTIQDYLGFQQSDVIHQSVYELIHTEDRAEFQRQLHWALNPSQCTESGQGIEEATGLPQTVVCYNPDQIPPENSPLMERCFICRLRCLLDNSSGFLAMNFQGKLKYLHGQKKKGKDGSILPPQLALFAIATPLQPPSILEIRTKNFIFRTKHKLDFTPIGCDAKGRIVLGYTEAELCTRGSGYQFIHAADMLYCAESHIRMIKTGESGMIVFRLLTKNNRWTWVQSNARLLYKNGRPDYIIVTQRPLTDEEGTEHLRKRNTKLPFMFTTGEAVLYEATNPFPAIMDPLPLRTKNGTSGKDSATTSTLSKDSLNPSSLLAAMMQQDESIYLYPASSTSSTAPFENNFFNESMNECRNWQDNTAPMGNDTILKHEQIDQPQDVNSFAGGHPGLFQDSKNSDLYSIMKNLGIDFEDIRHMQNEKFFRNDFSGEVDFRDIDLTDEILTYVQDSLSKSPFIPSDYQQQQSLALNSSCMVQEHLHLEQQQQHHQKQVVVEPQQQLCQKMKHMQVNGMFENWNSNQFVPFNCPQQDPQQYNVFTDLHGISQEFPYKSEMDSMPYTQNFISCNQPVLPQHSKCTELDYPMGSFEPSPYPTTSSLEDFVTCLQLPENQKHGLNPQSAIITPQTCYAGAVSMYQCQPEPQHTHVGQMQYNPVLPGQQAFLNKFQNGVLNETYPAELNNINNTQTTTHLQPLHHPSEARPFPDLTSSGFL
# test.details: In vitro assay 1: antagonism in human cell line (transactivation assay, kynurenic acid prestimulated)
# conditions: Assay 1: AHR-luc Hum Antagonism IC50 [M], 150 μM kynurenic acid, 20 hours, firefly luciferase
Give measured log10 of IC50 for each item. Keep answers brief.
Would you kindly interpret these values as log10 of IC50 expressed in M?

{"compound": "Cc1ccc(-c2cc(C(=O)NCC(O)C(F)(F)F)c(=O)n(-c3cccc(F)c3)n2)cc1 (centres unmarked) [Example 4]", "log10 of IC50": -7.53}
{"compound": "O=C(NC1(CO)CC1)c1cc(-c2ccc(Cl)cc2)nn(-c2cccc(F)c2)c1=O [Example 187]", "log10 of IC50": -6.99}
{"compound": "O=C(NC(CO)C1CCOCC1)c1cc(-c2ccc(Cl)cc2)nn(-c2cccc(F)c2)c1=O (single isomer, unassigned) [Example 151]", "log10 of IC50": -6.91}
{"compound": "N#CC(CO)NC(=O)c1cc(-c2ccc(Cl)cc2)nn(-c2cccc(F)c2)c1=O (racemic) [Example 371]", "log10 of IC50": -7.79}
{"compound": "C[C@H](NC(=O)c1cc(-c2ccc(OC(F)(F)F)cc2)nn(-c2cccc(F)c2)c1=O)C(C)(C)O [Example 380]", "log10 of IC50": -7.55}

Record log10 of IC50 per entry; entries follow.
1. C[C@@H](CO)NC(=O)c1cc(-c2ccc(Cl)cc2)nn(-c2cccc(F)c2)c1=O [Example 23]
2. C[C@@H](CO)NC(=O)c1cc(-c2ccc(OC(F)(F)F)cc2)nn(-c2cccc(F)c2)c1=O [Example 173]
3. C[C@H](NC(=O)c1cc(-c2ccc(C(F)(F)F)cc2)nn(-c2cccc(F)c2)c1=O)C(C)(C)O [Example 391]

Result:
1: -7.40; 2: -7.48; 3: -8.00

Dear reader, for each entry below, please note its log10 of IC50.
1. Cc1ccc(-c2cc(C(=O)N[C@@H](CO)C(C)C)c(=O)n(-c3cccc(F)c3)n2)cc1C [Example 84]
2. COc1ccc(-c2cc(C(=O)N[C@@H]3CCCC[C@@H]3O)c(=O)n(-c3cccc(F)c3)n2)cc1 (relative stereo) [Example 106]
3. Cc1ccc(-c2cc(C(=O)NCC(O)C(F)(F)F)c(=O)n(-c3cc(F)cc(F)c3)n2)cc1 (single isomer, unassigned) [Example 54]
4. CC[C@@H](CO)NC(=O)c1cc(-c2ccc(Cl)c(F)c2)nn(-c2cccc(F)c2)c1=O [Example 288]

Result:
-5.44
-7.70
-7.39
-7.40

I need log10 of IC50 for every entry listed below, if you could help.
1. C[C@H](NC(=O)c1cc(-c2ccc(OC(F)F)cc2)nn(-c2cccc(F)c2)c1=O)C(C)(C)O [Example 386]
2. COc1ccc(-c2cc(C(=O)NC(CO)C(F)(F)F)c(=O)n(-c3cccc(F)c3)n2)cc1 (single isomer, unassigned) [Example 102]
3. O=C(NCC(O)C(F)(F)F)c1cc(-c2ccc(Cl)cc2)nn(-c2ccccc2)c1=O (single isomer, unassigned) [Example 77]

Result:
1: -7.19; 2: -7.37; 3: -7.14

For every item in the list below, what is its measured log10 of IC50?
1. O=C(NC(CO)C1CCCO1)c1cc(-c2ccc(Cl)cc2)nn(-c2cccc(F)c2)c1=O (single isomer, unassigned) [Example 317]
2. CC(C)[C@@H](CO)NC(=O)c1cc(-c2ccc(Cl)cc2)nn(-c2cccc(F)c2)c1=O [Example 20]
3. CC(O)C(C)NC(=O)c1cc(-c2ccc(OC(F)(F)F)cc2)nn(-c2cccc(F)c2)c1=O (centres unmarked) [Example 179]

Result:
[-6.75, -7.93, -7.13]
